I'd be grateful if you could share measured half-life for these entries.
test: Half life in iv dosed Sprague-Dawley rat; assay type: ADME, organism-based; details: in vivo
Remember to put the unit after the number in your answer.

Field: example entries. Status: answers known.
Provide one value: measured half-life of "CC(C)C[C@H](NC(=O)c1cc2ccccc2o1)C(=O)N[C@@H]1C(=O)CN(S(=O)(=O)c2ccccn2)CC[C@@H]1C"
58.5 min

Provide one value: measured half-life of "CC(C)C[C@H](NC(=O)c1cc2ccccc2o1)C(=O)N[C@H]1CC[C@@H](C)N(S(=O)(=O)c2ccccn2)CC1=O"
109 min

---
Provide one value: measured half-life of "CC(C)C[C@H](NC(=O)c1cc2ccccc2o1)C(=O)N[C@H]1C[C@H](C)CN(S(=O)(=O)c2ccccn2)CC1=O"
51.6 min

* * *

experiment: Permeability in artificial membrane; format: ADME, cell membranes; conditions: PAMPA; read-out: permeability
Measured Endpoint: Papp (×10⁻⁶ cm/s)
Answers are plain numbers, in ×10⁻⁶ cm/s.

Please go through the list and note Papp for each compound.
1. CC(C)C[C@H](NC(=O)c1cc2ccccc2o1)C(=O)N[C@@H]1C(=O)CN(S(=O)(=O)c2ccccn2)CC[C@@H]1C
2. CC(C)C[C@H](NC(=O)c1cc2ccccc2o1)C(=O)N[C@H]1CCCN(S(=O)(=O)c2ccccn2)CC1=O
3. CC(C)C[C@H](NC(=O)c1cc2ccccc2o1)C(=O)N[C@H]1C[C@H](C)CN(S(=O)(=O)c2ccccn2)CC1=O

[68, 53, 56]

Provide one value: measured Papp of "CC(C)C[C@H](NC(=O)c1cc2ccccc2o1)C(=O)N[C@H]1CC[C@@H](C)N(S(=O)(=O)c2ccccn2)CC1=O"
47

* * *

experiment: Clearance in iv dosed Sprague-Dawley rat; format: ADME, organism-based; details: in vivo
Measured Endpoint: clearance (mL/min/kg)
Numbers only, in mL/min/kg.

Field: example entries. Status: answers known.
Provide one value: measured clearance of "CC(C)C[C@H](NC(=O)c1cc2ccccc2o1)C(=O)N[C@H]1C[C@H](C)CN(S(=O)(=O)c2ccccn2)CC1=O"
34.4

Provide one value: measured clearance of "CC(C)C[C@H](NC(=O)c1cc2ccccc2o1)C(=O)N[C@@H]1C(=O)CN(S(=O)(=O)c2ccccn2)CC[C@@H]1C"
80.5

Alright, here's another molecule for you.
Provide one value: measured clearance of CC(C)C[C@H](NC(=O)c1cc2ccccc2o1)C(=O)N[C@H]1CC[C@@H](C)N(S(=O)(=O)c2ccccn2)CC1=O [RELACATIB]
19.5

* * *

// Cathepsin S (Homo sapiens, UniProt P25774) Ki records
Answers are plain numbers, in nM.

Field: example entries. Status: answers known.
Provide one value: measured Ki of "CC(C)C[C@H](NC(=O)c1cc2ccccc2o1)C(=O)N[C@@H]1CC[C@H](C)N(S(=O)(=O)c2ccccn2)CC1=O"
110

Provide one value: measured Ki of "CC(C)C[C@H](NC(=O)c1cc2ccccc2o1)C(=O)N[C@@H]1CC[C@@H](C)N(S(=O)(=O)c2ccccn2)CC1=O"
92

Please go through the list and note Ki for each molecule.
1. CC(C)C[C@H](NC(=O)c1cc2ccccc2o1)C(=O)N[C@H]1CC[C@H](C)N(S(=O)(=O)c2ccccn2)CC1=O
2. CC(C)C[C@H](NC(=O)c1cc2ccccc2o1)C(=O)N[C@@H]1C[C@@H](C)CN(S(=O)(=O)c2ccccn2)CC1=O
3. CC(C)C[C@H](NC(=O)c1cc2ccccc2o1)C(=O)N[C@@H]1C[C@H](C)CN(S(=O)(=O)c2ccccn2)CC1=O
4. CC(C)C[C@H](NC(=O)c1cc2ccccc2o1)C(=O)N[C@H]1CC[C@@H](C)N(S(=O)(=O)c2ccccn2)CC1=O [RELACATIB]

1: 42; 2: 300; 3: 8.3; 4: 1.6
